# experimentNotes: amyloid nucleation score (Sup35N fusion, yeast selection) (log enrichment); library NNK3; higher = more nucleation; inactive = no reads after selection;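 note: zero at mode of non-aggregating sequences after 7 days selection at 30°C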
recordedEndpoint: amyloid nucleation score

Solved cases below.
substance | recordedEndpoint | reportedMeasurement
VRFCGLLIGQVTWFLAVLEY | amyloid nucleation score | inactive
HTGNLYHLSWCV | amyloid nucleation score | inactive
AKATMPIT | amyloid nucleation score | inactive
VRMCVIVQVKVCARDMTVST | amyloid nucleation score | inactive

// query I have this substance here, `YVLKLSRYMPN` , and I need its recorded amyloid nucleation score.
// result inactive

----------
# experimentNotes: amyloid nucleation score (Sup35N fusion, yeast selection) (log enrichment); library NNK3; higher = more nucleation; inactive = no reads after selection
recordedEndpoint: amyloid nucleation score

Solved cases below.
substance | reportedMeasurement
WCFWNSC | inactive
CESDEH | inactive
ECIGRKRELDLWSAARYAYS | inactive
IKWFLSNGIYYGILNFIDTR | inactive
RLWICVSQILVILVDALILG | inactive

// query I have this substance here, `LLSADFSFSSVEMKLARLGV` , and I need its recorded amyloid nucleation score.
// result 1.22

// query Cool, now `ADNTDMKMTEVGTHHNGNQN`
// result inactive

// query Cool, now `CMIHYSSRAILEMWLAPRMY`
// result inactive
